# test system: T1, human βI-tryptase monomer (Homo sapiens, UniProt Q15661)
# T1 construct: mature human βI-tryptase, Ile31-Pro275 of Uniprot Q15661 (Ile16-Pro246 in chymotrypsinogen numbering); The monomer used in SPR and HDX-MS; also called monomeric βI-tryptase; monomeric β-tryptase
# T1 sequence (Q15661 31-275): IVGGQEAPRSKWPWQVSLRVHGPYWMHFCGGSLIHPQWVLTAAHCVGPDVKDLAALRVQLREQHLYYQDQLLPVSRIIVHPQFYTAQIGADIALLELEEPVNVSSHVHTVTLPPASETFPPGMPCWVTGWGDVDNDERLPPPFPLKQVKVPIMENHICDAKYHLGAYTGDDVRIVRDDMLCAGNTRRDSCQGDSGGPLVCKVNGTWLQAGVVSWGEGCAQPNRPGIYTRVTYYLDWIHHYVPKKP
# measurement description: SPR; Biacore T200; E104 IgG variants captured on immobilised mouse anti-human IgG (Fc) antibody on CM5 chips; threefold dilutions of human βI-tryptase monomer injected at 30 µL/min, 25 °C; 1:1 Langmuir model; n = 2
# conditions used: both partners purified
observable: Kd (pM)
The response must be a number in pM with no trailing unit.

Prompt line: Item under review: E104.v2 IgG1 hinge variant G1-H (antibody, V domains shown, variable domain of the heavy chain as in m6 (PDB 6VVU, Fab heavy chain) with V71R and F78V (Kabat numbering); human IgG1 heavy chain constant region before the upper hinge (CH1); upper hinge of the variant; human IgG1 heavy chain constant region after the upper hinge (core hinge from C226, CH2, CH3); as the light chain of m6 (PDB 6VVU, Fab light chain); IgG1 with a shortened upper hinge; source: …) VH: EVQLVESGPGLVKPSETLSLTCTVSRFSLIGYAITWIRQPPGKGLEWIGGISSAATTFYSSWAKSRVTISRDTSKNQVSLKLSSVTAADTAVYYCARDPRGYGAALDRLDLWGQGTLVTVSS VL: DIQMTQSPSSLSASVGDRVTITCQSIKSVYNNRLGWYQQKPGKAPKLLIYETSILTSGVPSRFSGSGSGTDFTLTISSLQPEDFATYYCAGGFDRSGDTTFGQGTKVEIK . Reported Kd?
Response line: 600

Prompt line: Item under review: E104.v2 IgG2 (antibody, V domains shown, variable domain of the heavy chain as in m6 (PDB 6VVU, Fab heavy chain) with V71R and F78V (Kabat numbering); human IgG2 heavy chain constant region; upper hinge printed as ERKCCVE; as the light chain of m6 (PDB 6VVU, Fab light chain); IgG2 isotype version of E104.v2; source: 293 cells, transient transfection, purified (MabSelect SuRe, SEC); copies: 2 + 2) VH: EVQLVESGPGLVKPSETLSLTCTVSRFSLIGYAITWIRQPPGKGLEWIGGISSAATTFYSSWAKSRVTISRDTSKNQVSLKLSSVTAADTAVYYCARDPRGYGAALDRLDLWGQGTLVTVSS VL: DIQMTQSPSSLSASVGDRVTITCQSIKSVYNNRLGWYQQKPGKAPKLLIYETSILTSGVPSRFSGSGSGTDFTLTISSLQPEDFATYYCAGGFDRSGDTTFGQGTKVEIK . Reported Kd?
Response line: 600

Prompt line: Item under review: E104.v2 IgG1 hinge variant G1.G5 (antibody, V domains shown, variable domain of the heavy chain as in m6 (PDB 6VVU, Fab heavy chain) with V71R and F78V (Kabat numbering); human IgG1 heavy chain constant region before the upper hinge (CH1); upper hinge of the variant; human IgG1 heavy chain constant region after the upper hinge (core hinge from C226, CH2, CH3); as the light chain of m6 (PDB 6VVU, Fab light chain); IgG1 with five glycines in the upper hinge; …) VH: EVQLVESGPGLVKPSETLSLTCTVSRFSLIGYAITWIRQPPGKGLEWIGGISSAATTFYSSWAKSRVTISRDTSKNQVSLKLSSVTAADTAVYYCARDPRGYGAALDRLDLWGQGTLVTVSS VL: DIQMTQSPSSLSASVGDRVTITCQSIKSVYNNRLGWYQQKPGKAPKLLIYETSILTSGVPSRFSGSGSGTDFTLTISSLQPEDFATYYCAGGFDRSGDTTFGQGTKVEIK . Reported Kd?
Response line: 600

Prompt line: Item under review: E104.v2 IgG1 hinge variant G1 + GGS (antibody, V domains shown, variable domain of the heavy chain as in m6 (PDB 6VVU, Fab heavy chain) with V71R and F78V (Kabat numbering); human IgG1 heavy chain constant region before the upper hinge (CH1); upper hinge of the variant; human IgG1 heavy chain constant region after the upper hinge (core hinge from C226, CH2, CH3); as the light chain of m6 (PDB 6VVU, Fab light chain); IgG1 with an extended upper hinge; source: …) VH: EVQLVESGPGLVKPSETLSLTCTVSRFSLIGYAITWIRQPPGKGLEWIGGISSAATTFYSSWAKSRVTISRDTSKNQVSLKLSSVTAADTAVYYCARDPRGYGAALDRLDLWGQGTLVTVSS VL: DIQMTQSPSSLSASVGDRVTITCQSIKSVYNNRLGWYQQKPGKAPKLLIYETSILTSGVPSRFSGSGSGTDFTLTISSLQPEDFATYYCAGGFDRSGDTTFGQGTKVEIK . Reported Kd?
Response line: 500

Prompt line: Item under review: E104.v2 IgG1 hinge variant G1.CC (antibody, V domains shown, variable domain of the heavy chain as in m6 (PDB 6VVU, Fab heavy chain) with V71R and F78V (Kabat numbering); human IgG1 heavy chain constant region before the upper hinge (CH1); upper hinge of the variant; human IgG1 heavy chain constant region after the upper hinge (core hinge from C226, CH2, CH3); as the light chain of m6 (PDB 6VVU, Fab light chain); IgG1 with two added cysteines in the upper …) VH: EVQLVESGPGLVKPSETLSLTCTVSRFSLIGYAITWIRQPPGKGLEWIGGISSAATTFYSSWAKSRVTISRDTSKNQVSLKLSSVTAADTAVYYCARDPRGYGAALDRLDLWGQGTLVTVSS VL: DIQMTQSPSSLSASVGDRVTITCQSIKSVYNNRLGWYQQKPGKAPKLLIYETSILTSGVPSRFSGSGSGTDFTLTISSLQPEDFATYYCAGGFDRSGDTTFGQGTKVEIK . Reported Kd?
Response line: 400

Further cases:
Prompt line: Item under review: E104.v2 IgG1 hinge variant G1 + (GGS)3 (antibody, V domains shown, variable domain of the heavy chain as in m6 (PDB 6VVU, Fab heavy chain) with V71R and F78V (Kabat numbering); human IgG1 heavy chain constant region before the upper hinge (CH1); upper hinge of the variant; human IgG1 heavy chain constant region after the upper hinge (core hinge from C226, CH2, CH3); as the light chain of m6 (PDB 6VVU, Fab light chain); IgG1 with an extended upper hinge; source: …) VH: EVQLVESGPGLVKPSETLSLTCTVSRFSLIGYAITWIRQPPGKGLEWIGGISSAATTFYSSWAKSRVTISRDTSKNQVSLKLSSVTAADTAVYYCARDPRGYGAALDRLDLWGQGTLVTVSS VL: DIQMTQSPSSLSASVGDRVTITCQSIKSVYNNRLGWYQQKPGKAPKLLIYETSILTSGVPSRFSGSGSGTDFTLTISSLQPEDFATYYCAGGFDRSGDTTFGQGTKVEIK . Reported Kd?
Response line: 500

Prompt line: Item under review: E104.v2 IgG1 hinge variant G1.P5 (antibody, V domains shown, variable domain of the heavy chain as in m6 (PDB 6VVU, Fab heavy chain) with V71R and F78V (Kabat numbering); human IgG1 heavy chain constant region before the upper hinge (CH1); upper hinge of the variant; human IgG1 heavy chain constant region after the upper hinge (core hinge from C226, CH2, CH3); as the light chain of m6 (PDB 6VVU, Fab light chain); IgG1 with five prolines in the upper hinge; …) VH: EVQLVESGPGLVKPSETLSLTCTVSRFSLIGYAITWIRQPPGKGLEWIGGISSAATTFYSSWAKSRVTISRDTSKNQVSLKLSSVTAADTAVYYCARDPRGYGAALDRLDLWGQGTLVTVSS VL: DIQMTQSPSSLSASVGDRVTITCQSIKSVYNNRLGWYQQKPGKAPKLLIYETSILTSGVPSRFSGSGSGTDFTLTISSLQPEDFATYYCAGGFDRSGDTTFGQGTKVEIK . Reported Kd?
Response line: 400

Prompt line: Item under review: E104.v2 IgG1 hinge variant G1-TH (antibody, V domains shown, variable domain of the heavy chain as in m6 (PDB 6VVU, Fab heavy chain) with V71R and F78V (Kabat numbering); human IgG1 heavy chain constant region before the upper hinge (CH1); upper hinge of the variant; human IgG1 heavy chain constant region after the upper hinge (core hinge from C226, CH2, CH3); as the light chain of m6 (PDB 6VVU, Fab light chain); IgG1 with a shortened upper hinge; source: …) VH: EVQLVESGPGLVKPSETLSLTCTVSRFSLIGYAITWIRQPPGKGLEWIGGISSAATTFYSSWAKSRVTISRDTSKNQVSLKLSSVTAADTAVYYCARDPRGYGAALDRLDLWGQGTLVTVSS VL: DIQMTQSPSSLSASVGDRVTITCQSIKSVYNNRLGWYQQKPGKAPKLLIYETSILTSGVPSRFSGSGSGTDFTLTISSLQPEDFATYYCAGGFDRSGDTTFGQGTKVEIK . Reported Kd?
Response line: 500

Prompt line: Item under review: E104.v2 IgG1 hinge variant G1-KTH (antibody, V domains shown, variable domain of the heavy chain as in m6 (PDB 6VVU, Fab heavy chain) with V71R and F78V (Kabat numbering); human IgG1 heavy chain constant region before the upper hinge (CH1); upper hinge of the variant; human IgG1 heavy chain constant region after the upper hinge (core hinge from C226, CH2, CH3); as the light chain of m6 (PDB 6VVU, Fab light chain); IgG1 with a shortened upper hinge; source: …) VH: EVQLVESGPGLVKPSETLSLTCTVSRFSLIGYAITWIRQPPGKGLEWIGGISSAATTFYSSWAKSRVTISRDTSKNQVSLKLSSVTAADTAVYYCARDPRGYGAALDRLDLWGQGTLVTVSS VL: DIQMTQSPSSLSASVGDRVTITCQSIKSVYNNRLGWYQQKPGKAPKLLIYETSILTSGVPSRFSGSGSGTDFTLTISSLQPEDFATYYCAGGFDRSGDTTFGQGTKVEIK . Reported Kd?
Response line: 500

Prompt line: Item under review: humanized E104.v1 IgG1 (antibody, V domains shown, variable domain of the heavy chain as in m6 (PDB 6VVU, Fab heavy chain); human IgG1 heavy chain constant region; as the light chain of m6 (PDB 6VVU, Fab light chain); IgG1; also called IgG1.v1; source: 293 cells, transient transfection, purified (MabSelect SuRe, SEC); copies: 2 + 2) VH: EVQLVESGPGLVKPSETLSLTCTVSRFSLIGYAITWIRQPPGKGLEWIGGISSAATTFYSSWAKSRVTISVDTSKNQFSLKLSSVTAADTAVYYCARDPRGYGAALDRLDLWGQGTLVTVSS VL: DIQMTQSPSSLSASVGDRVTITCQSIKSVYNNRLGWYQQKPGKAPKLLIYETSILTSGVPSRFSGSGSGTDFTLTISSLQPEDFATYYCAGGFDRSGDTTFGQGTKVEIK . Reported Kd?
Response line: 500
